Molecular target: T1, extracellular domain of human IL-36R (human, UniProt Q9HB29 20-335)
T1 construct: extracellular domain; Immobilised on the chip in the BIACORE assay; soluble and bead-coupled in the KINEXA assay; also called soluble human IL-36R extracellular domain
T1 sequence (looked up): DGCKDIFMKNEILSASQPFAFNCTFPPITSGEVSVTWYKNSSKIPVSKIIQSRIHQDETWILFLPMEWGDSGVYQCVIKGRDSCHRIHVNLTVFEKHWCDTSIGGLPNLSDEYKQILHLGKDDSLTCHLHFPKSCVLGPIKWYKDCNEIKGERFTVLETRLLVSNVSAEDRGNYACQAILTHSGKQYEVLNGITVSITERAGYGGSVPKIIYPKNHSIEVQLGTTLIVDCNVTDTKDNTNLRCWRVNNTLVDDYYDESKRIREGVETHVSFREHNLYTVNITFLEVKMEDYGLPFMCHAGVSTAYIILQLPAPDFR
Test: BIACORE T200 SPR, human IL-36R extracellular domain immobilised, antibody injected
ASSAY READOUT: Kd (nM)

{"BINDER": "Hzd 5D3 (APE6155) (antibody, V domains shown, also called APE6917; APE06155) VH: QVQLVQSGAEVKKPGASVKVSCKASGYTFTNYWMNWVRQAPRQGLEWMGMFHPTGDVTRLNQKFKDRVTMTRDTSTSTVYMELSSLRSEDTAVYYCARTTSMIIGGFAYWGQGTLVTVSS VL: DIVMTQTPLSLSVTPGQPASISCRSSKSLLHRNAITYFYWYLHKPGQPPQLLIYQMSNLASGVPDRFSGSGSGTDFTLKISRVEAEDVGVYYCAQNLELPLTFGGGTKVEIK", "VALUE": 0.071}
